target: FGFR1 (UniProt P11362); test: phosphorylation enrichment, bacterial display (enrichment ratio); higher = better substrate or ligand; peptides without Tyr show the background;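 also: 11-residue human phosphosite peptides and single-mutation variants displayed on the E. coli surface, counted by deep sequencing, each peptide's frequency after selection divided by its frequency in the unselected input library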;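 also: frequency after pTyr selection over input frequency; kinase dosed for 20-30% of maximal phosphorylation in three min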
Sequence (P11362 whole entry, looked up): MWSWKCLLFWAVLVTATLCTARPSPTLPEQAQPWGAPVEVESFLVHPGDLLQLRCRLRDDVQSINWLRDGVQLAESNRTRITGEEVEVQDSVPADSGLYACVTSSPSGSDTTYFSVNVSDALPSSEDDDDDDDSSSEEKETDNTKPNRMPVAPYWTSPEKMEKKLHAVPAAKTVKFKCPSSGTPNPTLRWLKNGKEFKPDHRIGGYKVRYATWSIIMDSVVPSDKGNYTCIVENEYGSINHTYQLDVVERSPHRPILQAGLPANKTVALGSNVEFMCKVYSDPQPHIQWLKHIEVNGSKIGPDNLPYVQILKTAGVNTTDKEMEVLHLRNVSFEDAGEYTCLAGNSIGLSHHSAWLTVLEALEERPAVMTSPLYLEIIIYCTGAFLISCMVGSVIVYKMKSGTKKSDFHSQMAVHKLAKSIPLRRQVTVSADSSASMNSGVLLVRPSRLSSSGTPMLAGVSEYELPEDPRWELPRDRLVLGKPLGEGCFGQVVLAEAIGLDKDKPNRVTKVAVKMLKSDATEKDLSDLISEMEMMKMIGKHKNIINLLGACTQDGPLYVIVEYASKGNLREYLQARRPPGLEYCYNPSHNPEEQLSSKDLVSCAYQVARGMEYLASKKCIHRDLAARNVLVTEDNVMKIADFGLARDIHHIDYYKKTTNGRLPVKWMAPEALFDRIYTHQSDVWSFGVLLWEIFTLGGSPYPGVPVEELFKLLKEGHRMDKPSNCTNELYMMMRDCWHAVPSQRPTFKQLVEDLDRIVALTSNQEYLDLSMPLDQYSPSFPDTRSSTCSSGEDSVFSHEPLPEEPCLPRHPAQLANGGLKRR
Classification field: Y = phosphorylation enrichment at or over 0.5; N = phosphorylation enrichment under 0.5.

# input Could you tell me if the measured phosphorylation enrichment of VNTTLYEKFTF [TEK_Y1108_YF] reaches 0.5 or more?
# output N

# input Could you tell me if the measured phosphorylation enrichment of GKMSQYLESMQ [CYB5R3_Y130] reaches 0.5 or more?
# output N

# input Could you tell me if the measured phosphorylation enrichment of TLNVRHESVQA [CEACAM7_Y236_Y236H] reaches 0.5 or more?
# output N

# input Could you tell me if the measured phosphorylation enrichment of AAILGYCHGEA [XPC_Y669_R671H] reaches 0.5 or more?
# output Y

# input Could you tell me if the measured phosphorylation enrichment of PLLEFYWDIFT [CDAN1_Y713_R714W_YF] reaches 0.5 or more?
# output N

# input Could you tell me if the measured phosphorylation enrichment of EQLQSYQAEII [KRT33A_Y268] reaches 0.5 or more?
# output Y

# input Could you tell me if the measured phosphorylation enrichment of CTHDLYMFMRE [FGFR3_Y724_I726F] reaches 0.5 or more?
# output Y

# input Could you tell me if the measured phosphorylation enrichment of KILAKYLLETS [NAMPT_Y175] reaches 0.5 or more?
# output N

# input Could you tell me if the measured phosphorylation enrichment of EVEPRYVVLYD [ERCC4_Y577] reaches 0.5 or more?
# output Y

# input Could you tell me if the measured phosphorylation enrichment of YAFQLYDLDPD [CHP2_Y123_R127P] reaches 0.5 or more?
# output Y

# input Could you tell me if the measured phosphorylation enrichment of SLYPGYNFRYA [P2RX7_Y291] reaches 0.5 or more?
# output N

# input Could you tell me if the measured phosphorylation enrichment of IGNGFYFRVFS [MYBPC3_Y1136_YF] reaches 0.5 or more?
# output N

# input Could you tell me if the measured phosphorylation enrichment of KDHPDYEFQPR [SOX9_Y172_K173E_YF] reaches 0.5 or more?
# output Y

# input Could you tell me if the measured phosphorylation enrichment of FLAVGYHKPFI [IDS_Y225_H229Y_YF] reaches 0.5 or more?
# output N

# input Could you tell me if the measured phosphorylation enrichment of RNPLRYTSILT [OR51B6_Y130_S126N] reaches 0.5 or more?
# output Y

# input Could you tell me if the measured phosphorylation enrichment of LSDGPYSSPFE [EPOR_Y485_N487S_YF] reaches 0.5 or more?
# output Y

# input Could you tell me if the measured phosphorylation enrichment of TTPGPHRSIFF [MPG_Y71_Y71H_YF] reaches 0.5 or more?
# output N

# input Could you tell me if the measured phosphorylation enrichment of LRWREYQRQDF [PRKRIP1_Y90_R87W_YF] reaches 0.5 or more?
# output Y
